- Procedure Summary: Compound was tested for cytotoxicity against HSV-2 (herpes simplex type-2) of HFF (human foreskin fibroblasts) cells in different experiment
- Assay type: cell-based
- Condition Info: HFF (human foreskin fibroblast) cells
# key: entry, value: CC50

- Molecule: "Cc1cn([C@H]2C[C@H](O)[C@@]3(O)CC23)c(=O)[nH]c1=O (some centres not stated)"
  CC50: "> 20 µg/mL"
- Molecule: "Cc1cn(C2C[C@H](O)[C@@H](O)C2)c(=O)[nH]c1=O"
  CC50: "> 10 µg/mL"

====

- Procedure Summary: Compound was tested for cytotoxicity against HSV-1 (herpes simplex type-1) of HFF (human foreskin fibroblasts) cells
- Type: cell-based
- Condition Info: HFF (human foreskin fibroblast) cells
# key: entry, value: CC50

- Compound: "Cc1cn([C@@]23CC2[C@H](O)[C@@H](O)C3)c(=O)[nH]c1=O (stereo partly drawn)"
  CC50: "> 50 µg/mL"
- Compound: "Cc1cn(C2C[C@H](O)[C@@H](O)C2)c(=O)[nH]c1=O"
  CC50: "> 10 µg/mL"
- Compound: "Cc1cn([C@H]2C[C@H](O)[C@@]3(O)CC23)c(=O)[nH]c1=O (stereo partly drawn)"
  CC50: "> 20 µg/mL"
